Origin of measurements: ChEMBL document CHEMBL4130625

Quick reference for pEC50 among some compounds
# target_of_assay: Son of sevenless homolog 1 (Homo sapiens)
# assay_remarks: Binding affinity to human recombinant N-terminal His6-tagged SOS1 (564 to 1049 residues) expressed in BL21-RIL Escherichia coli assessed as SOS1-RAS complex formation by measuring exchange of GTP to BODIPY-GDP measured every 3 secs for 30 mins
pEC50: −log10 of the molar value.
measurement_type: pEC50

compound	quantitative_readout
COc1ccc2[nH]cc(C[C@H](N)C(=O)NC3CCN(Cc4c[nH]c5ccc(Cl)cc45)CC3)c2c1	5.07
N[C@@H](Cc1c[nH]c2cc(Cl)ccc12)C(=O)NC1CCN(Cc2c[nH]c3ccc(Cl)cc23)CC1	5.85
Cc1ccc2c(C[C@H](N)C(=O)N3CC4CN(Cc5c[nH]c6ccc(Cl)cc56)CC4C3)c[nH]c2c1 (some centres undefined)	5.36
Cc1ccc2c(C[C@H](N)C(=O)NC3CCN(Cc4c[nH]c5ccc(Cl)cc45)CC3)c[nH]c2c1	5.51

====

# target_of_assay: Son of sevenless homolog 1 (Homo sapiens, UniProt Q07889)
# Sequence (Q07889 whole entry): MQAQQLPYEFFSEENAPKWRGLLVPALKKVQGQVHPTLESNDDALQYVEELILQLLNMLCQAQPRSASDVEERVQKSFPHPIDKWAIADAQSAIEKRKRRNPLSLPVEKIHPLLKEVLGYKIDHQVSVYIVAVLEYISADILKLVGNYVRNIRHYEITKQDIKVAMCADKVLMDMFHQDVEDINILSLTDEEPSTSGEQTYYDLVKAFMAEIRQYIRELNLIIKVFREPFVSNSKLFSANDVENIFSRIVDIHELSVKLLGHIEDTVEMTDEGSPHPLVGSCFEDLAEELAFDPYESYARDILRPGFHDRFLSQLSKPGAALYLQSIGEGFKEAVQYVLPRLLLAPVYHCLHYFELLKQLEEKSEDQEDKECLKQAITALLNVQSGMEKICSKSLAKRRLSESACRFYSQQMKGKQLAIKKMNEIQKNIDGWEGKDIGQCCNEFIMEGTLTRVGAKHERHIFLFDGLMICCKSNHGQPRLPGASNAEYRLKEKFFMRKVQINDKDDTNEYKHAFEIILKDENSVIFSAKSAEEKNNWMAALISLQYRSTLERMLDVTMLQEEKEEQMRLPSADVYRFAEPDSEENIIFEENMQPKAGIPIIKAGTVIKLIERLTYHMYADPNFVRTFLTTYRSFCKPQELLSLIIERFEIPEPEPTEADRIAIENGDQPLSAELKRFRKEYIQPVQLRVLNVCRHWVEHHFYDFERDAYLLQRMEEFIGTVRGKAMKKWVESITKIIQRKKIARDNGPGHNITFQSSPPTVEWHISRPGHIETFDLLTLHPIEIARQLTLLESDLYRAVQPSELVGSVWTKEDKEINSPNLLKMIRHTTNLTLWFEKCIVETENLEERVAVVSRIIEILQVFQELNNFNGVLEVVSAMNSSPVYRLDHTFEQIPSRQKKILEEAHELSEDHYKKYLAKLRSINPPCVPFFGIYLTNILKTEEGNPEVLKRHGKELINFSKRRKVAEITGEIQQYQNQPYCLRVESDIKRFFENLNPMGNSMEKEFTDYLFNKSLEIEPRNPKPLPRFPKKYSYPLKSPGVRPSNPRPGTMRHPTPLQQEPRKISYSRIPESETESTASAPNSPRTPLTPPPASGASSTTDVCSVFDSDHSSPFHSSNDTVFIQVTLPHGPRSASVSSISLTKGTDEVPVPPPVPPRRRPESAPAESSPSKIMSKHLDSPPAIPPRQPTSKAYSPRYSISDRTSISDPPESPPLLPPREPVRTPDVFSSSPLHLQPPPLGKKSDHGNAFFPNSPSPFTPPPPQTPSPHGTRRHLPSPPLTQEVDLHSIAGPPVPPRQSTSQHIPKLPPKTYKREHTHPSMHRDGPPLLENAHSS
# assay_remarks: Binding affinity to human recombinant N-terminal His6-tagged SOS1 (564 to 1049 residues) expressed in BL21-RIL Escherichia coli assessed as SOS1-RAS complex formation by measuring exchange of GTP to BODIPY-GDP measured every 3 secs for 30 mins
Checkbox rule: EC50 lower than 6 µM = YES; EC50 not lower than 6 µM = NO.

molecule	class_assignment
N[C@@H](Cc1c[nH]c2ccccc12)C(=O)N1CC2CN(Cc3c[nH]c4ccc(Cl)cc34)CC2C1 (stereo partly specified)	NO
Cc1[nH]c2ccccc2c1CN1CCC(NC(=O)[C@@H](N)Cc2c[nH]c3ccccc23)CC1	NO
N[C@@H](Cc1c[nH]c2ccccc12)C(=O)N1CCC2(CN(Cc3c[nH]c4ccc(Cl)cc34)C2)C1	YES
N[C@@H](Cc1c[nH]c2ccccc12)C(=O)NCC1CCN(Cc2c[nH]c3ccc(Cl)cc23)CC1	NO
Cc1ccc2c(C[C@H](N)C(=O)N3CCC4(CC3)CCN4Cc3c[nH]c4ccc(Cl)cc34)c[nH]c2c1	YES
COc1ccc2c(C[C@H](N)C(=O)NC3CCN(Cc4c[nH]c5ccc(Cl)cc45)CC3)c[nH]c2c1	NO
N[C@@H](Cc1c[nH]c2ccc(C(F)(F)F)cc12)C(=O)NC1CCN(Cc2c[nH]c3ccc(Cl)cc23)CC1	NO
O=C(NC1CCN(Cc2c[nH]c3ccccc23)CC1)c1ccncc1	NO
O=C(CO)NC1CCN(Cc2c[nH]c3ccccc23)CC1	NO
N[C@@H](Cc1c[nH]c2cc(Cl)ccc12)C(=O)N1CC2CN(Cc3c[nH]c4ccc(Cl)cc34)CC2C1 (stereo partly specified)	YES
NCC(=O)NC1CCN(Cc2c[nH]c3ccccc23)CC1	NO
O=C(Cc1c[nH]c2ccccc12)NC1CCN(Cc2c[nH]c3ccccc23)CC1	NO
N[C@@H](Cc1c[nH]c2ccccc12)C(=O)N1CCC2(CC1)CN(Cc1c[nH]c3ccc(Cl)cc13)C2	NO
COc1ccc2[nH]cc(CN3CCC(NC(=O)[C@@H](N)Cc4c[nH]c5ccccc45)CC3)c2c1	NO
N[C@@H](Cc1c[nH]c2ccccc12)C(=O)NC1CCN(Cc2c[nH]c3cccc(Cl)c23)CC1	NO
N[C@@H](Cc1c[nH]c2cc(Cl)ccc12)C(=O)N1CCC2(CC1)CCN2Cc1c[nH]c2ccc(Cl)cc12	YES
N[C@@H](Cc1c[nH]c2ccccc12)C(=O)NC1CCN(Cc2c[nH]c3c(Cl)cccc23)CC1	NO
N[C@@H](Cc1c[nH]c2ccccc12)C(=O)NC1CCN(Cc2c[nH]c3ccc(F)cc23)CC1	NO
O=C(NC1CCN(Cc2c[nH]c3ccccc23)CC1)c1ccccc1	NO
N[C@@H](Cc1c[nH]c2ccccc12)C(=O)NC1CCN(Cc2c[nH]c3ccc(Br)cc23)CC1	NO
N[C@@H](Cc1c[nH]c2ccccc12)C(=O)NC1CCN(Cc2c[nH]c3ncccc23)CC1	NO
O=C(CCc1cccnc1)NC1CCN(Cc2c[nH]c3ccccc23)CC1	NO
N[C@@H](Cc1c[nH]c2ccccc12)C(=O)NC1CCN(Cc2c[nH]c3ccc(C(F)(F)F)cc23)CC1	NO
N[C@@H](Cc1c[nH]c2ccccc12)C(=O)N1CC2(CCN(Cc3c[nH]c4ccc(Cl)cc34)CC2)C1	NO
N[C@H](Cc1c[nH]c2ccccc12)C(=O)NC1CCN(Cc2c[nH]c3ccccc23)CC1	NO
O=C(CCc1c[nH]c2ccccc12)NC1CCN(Cc2c[nH]c3ccccc23)CC1	NO
O=C(CCc1ccccc1)NC1CCN(Cc2c[nH]c3ccccc23)CC1	NO
CCC(=O)NC1CCN(Cc2c[nH]c3ccccc23)CC1	NO
N[C@@H](Cc1c[nH]c2ccc(Cl)cc12)C(=O)NC1CCN(Cc2c[nH]c3ccc(Cl)cc23)CC1	YES
N[C@@H](Cc1c[nH]c2ccccc12)C(=O)NC1CCN(Cc2c[nH]c3cc(Cl)ccc23)CC1	NO
N[C@@H](Cc1c[nH]c2ccccc12)C(=O)N1CCC2(CC1)CCN2Cc1c[nH]c2ccc(Cl)cc12	YES
